Test system: H1299 p53 Y220C
test_details: Cell Proliferation Assay (CellTiter-Glo, CTG), H1299 p53 Y220C (NClH1299-inducible p53 Y220C)
Assay type: cell-based
condition_info: Homo sapiens, NCI-H1299, 120 h, CellTiter-Glo, H1299 p53 Y220C, 5 days
Experimental: Inducible p53 Y220C and R273H constructs (Tet-One inducible expression system; Takara) were stably expressed in NClH1299 cells by lentiviral transduction. NUGC3, A549, BxPC3, T3M4, HuH7, HCC2935, MFE296, NClH1299, NClH1299-inducible p53 Y220C, and NClH1299-inducible p53 R273H cell lines were used for cell proliferation assay. […] The luminescent signal was measured by PheraStar microplate reader and IC50 was calculated.
property_label: IC50

CNC(=O)c1ccc(OC)c(NCC#Cc2cc3c(N[C@@H]4CCN(C)C[C@@H]4F)nccn3c2SC(F)(F)F)n1 [Example 207] :: < 0.75 µM
CCS(=O)(=O)c1ccc(NCC#Cc2nc3c(N[C@@H]4CCN(C)C[C@@H]4F)cccn3c2CC(F)(F)F)c(OC)c1 [Example 66] :: < 0.75 µM

Continue with the compound presented below.
q: Give H1299 p53 Y220C IC50 for CNC(=O)c1ccc(NCC#Cc2nc3c(N[C@@H]4CCN(C)C[C@@H]4F)cccn3c2CC(F)(F)F)c(OC(F)(F)F)c1 [Example 53]
a: 1.5 to 3 µM

---

Test system: H1299 p53 Y220C
test_details: Cell Proliferation Assay (CellTiter-Glo, CTG), H1299 p53 Y220C (NClH1299-inducible p53 Y220C)
Format: cell-based
condition_info: Homo sapiens, NCI-H1299, 120 h, CellTiter-Glo, H1299 p53 Y220C, 5 days
Overview of recorded IC50 for various compounds

In the examples that follow, each entry is paired with its recorded IC50.
CNC(=O)c1ccc(OC)c(NCC#Cc2nc3c(N[C@@H]4CCN(C)C[C@@H]4F)cc(F)cn3c2SC(F)(F)F)c1 :: < 750 nM
CNC(=O)c1cc(OC)c(NCC#Cc2nc3c(N[C@@H]4CCN(C)C[C@@H]4F)cccn3c2SC(F)(F)F)cn1 :: < 750 nM
CCS(=O)(=O)c1ccc(NCC#Cc2nc3c(N[C@@H]4CCNC[C@@H]4F)cccn3c2SC(F)(F)F)c(OC)c1 :: < 750 nM

q: Give H1299 p53 Y220C IC50 for CNC(=O)c1ccc(NCC#Cc2nc3c(N[C@H]4CCn5nccc5C4)cccn3c2SC(F)(F)F)c(OC)c1
a: 750 to 1500 nM

q: Next compound up: COc1cc(S(C)(=O)=O)ccc1NCC#Cc1nc2c(N[C@H]3CCN(C)C[C@H]3F)cccn2c1CC(F)(F)F
a: 1500 to 3000 nM

q: Next compound up: CNC(=O)c1ccc(NCC#Cc2nc3c(N[C@@H]4C[C@H]5COC[C@@H]([C@@H]4F)N5C)cccn3c2SC(F)(F)F)c(OC)c1
a: > 3000 nM

q: Next compound up: CN1CC[C@@H](Nc2cccn3c(CC(F)(F)F)c(C#CCNc4ccc(S(C)(=O)=O)cc4)nc23)[C@@H](F)C1
a: 750 to 1500 nM

q: Next compound up: CNC(=O)c1ccc(OC)c(NCC#Cc2nc3c(N[C@@H]4CCNC[C@@H]4F)cccn3c2SC(F)(F)F)c1
a: < 750 nM

q: Next compound up: COc1ccc(C(=O)NC2CC2)cc1NCC#Cc1nc2c(N[C@@H]3CCN(C)C[C@@H]3F)cccn2c1SC(F)(F)F
a: < 750 nM

q: Next compound up: CNC(=O)c1ccc(NCC#Cc2nc3c(N[C@@H]4CN(C)C[C@@H]4F)cccn3c2SC(F)(F)F)c(OC)c1
a: < 750 nM
